Measured values drawn from BigSolDB 2.1 for this set.

# condition_description: in acetone, 294.64 K
parameter_measured: solubility (mole fraction)
Output: the number by itself.

# solubility (mole fraction) (compound: O=[N+]([O-])/N=C1\NCCN1Cc1ccc(Cl)nc1 ) is 0.012

----------
# condition_description: in chloroform, 307.04 K
parameter_measured: solubility (mole fraction)

# solubility (mole fraction) (molecule: O=[N+]([O-])/N=C1\NCCN1Cc1ccc(Cl)nc1 ) is 0.0123

----------
# condition_description: in ethanol, 315.96 K
parameter_measured: solubility (mole fraction)
Output: the number by itself.

# solubility (mole fraction) (molecule: O=[N+]([O-])/N=C1\NCCN1Cc1ccc(Cl)nc1 ) is 0.00136

----------
# condition_description: in ethanol, 333.57 K
parameter_measured: solubility (mole fraction)
Output: the number by itself.

# solubility (mole fraction) (compound: O=[N+]([O-])/N=C1\NCCN1Cc1ccc(Cl)nc1 ) is 0.00289

----------
# condition_description: in ethanol, 318.07 K
parameter_measured: solubility (mole fraction)
Output: the number by itself.

# solubility (mole fraction) (compound: O=[N+]([O-])/N=C1\NCCN1Cc1ccc(Cl)nc1 ) is 0.00151

----------
# condition_description: in ethanol, 301.12 K
parameter_measured: solubility (mole fraction)

# solubility (mole fraction) (molecule: O=[N+]([O-])/N=C1\NCCN1Cc1ccc(Cl)nc1 ) is 0.000569

----------
# condition_description: in methanol, 323.37 K
parameter_measured: solubility (mole fraction)

# solubility (mole fraction) (molecule: O=[N+]([O-])/N=C1\NCCN1Cc1ccc(Cl)nc1 ) is 0.00413

----------
# condition_description: in 1,2-dichloroethane, 342.81 K
parameter_measured: solubility (mole fraction)
Output: the number by itself.

# solubility (mole fraction) (molecule: O=[N+]([O-])/N=C1\NCCN1Cc1ccc(Cl)nc1 ) is 0.049
